Recorded solubility, one value per entry.
procedure_text: physchem
condition: pH 2, simulated gastric fluid, kinetic from dmso stock

Some solved entries appear below for comparison.
Cc1cc(C)nc(Nc2ncc(C(=O)NCCc3c(C)[nH]c4c(F)cccc34)cn2)c1 [Compound 24aa] = > 250 µM
COc1ccccc1-c1ncc(C(=O)NCCc2c(C)[nH]c3ccccc23)cn1 [Compound 14a] = > 100 µM

Form field: reported solubility of Cc1cc(C)nc(Nc2ncc(C(=O)NCCc3c(C)[nH]c4c(F)cc(F)cc34)cn2)c1 [Compound 24c]
> 100 µM

----------
procedure_text: Kinetic aqueous solubility in PBS by nephelometry
condition: PBS buffer (pH 7.4) with 1% DMSO, nephelometry
I'd appreciate it if you could label each record using Aqueous Solubility and these ranges: low end = under 10 µM, middle = from 10 µM up to 20 µM, high end = 20 µM and over

CCC(C)(O)c1cccc(Nc2ncc(C(=O)NCCc3c(C)[nH]c4ccccc34)cn2)n1 (stereo not shown) [Compound 20m] = low end
COc1cc(OC)cc(-c2ccc(C(=O)NCCc3c(C)[nH]c4ccccc34)cn2)c1 = middle
Cc1[nH]c2ccccc2c1CCNC(=O)c1cnc(Nc2cccc(C#N)n2)nc1 [Compound 20g] = middle
COc1cccc(Nc2ncc(C(=O)NCCc3c(C)[nH]c4ccccc34)cn2)n1 [Compound 20h] = middle
Cc1[nH]c2ccccc2c1CCNC(=O)c1ccc(-c2ccccc2F)nc1 = high end
Cc1[nH]c2ccccc2c1CCNC(=O)c1ccc(N2CCOCC2)nc1 = high end

Exercise: read the entry COc1cccc(-c2ccc(C(=O)NCCc3c(C)[nH]c4ccccc34)cn2)c1 and state which class it falls under.
middle

// same read-out, input: Cc1[nH]c2ccccc2c1CCNC(=O)c1cnc(Nc2cccnc2)nc1 [Compound 20q]
middle

// same read-out, input: Cc1cc(C)nc(Nc2ncc(C(=O)NCCc3c(C)[nH]c4ccc(F)cc34)cn2)c1 [Compound 24a]
low end

// same read-out, input: Cc1[nH]c2ccccc2c1CCNC(=O)c1cnc(Nc2cccc(C(C)(C)C)n2)nc1 [Compound 20n]
high end

// same read-out, input: Cc1[nH]c2ccccc2c1CCNC(=O)c1cnc(Nc2ccccn2)nc1 [Compound 20a]
high end

// same read-out, input: Cc1[nH]c2ccccc2c1CCNC(=O)c1cnc(Nc2cccc(F)n2)nc1 [Compound 20f]
high end
